Tested on: Pseudomonas aeruginosa MB9798 vs MB9799
setup.conditions: ratio MITC95 PA_9798/MITC95 PA_9799
readout.kind: Efflux ratio

compound	assayed.system	measured
NCCN1CC[C@@H](NS(=O)(=O)c2ccc(-c3cccc4[nH]c(N)nc34)c(-c3nn[nH]n3)c2S(N)(=O)=O)C1	Pseudomonas aeruginosa MB9798 vs MB9799	2.00
Nc1nc2c(-c3ccc(S(=O)(=O)N4CCNC(=O)C4)c(S(N)(=O)=O)c3-c3nnn[nH]3)cccc2s1	Pseudomonas aeruginosa MB9798 vs MB9799	4.00
NC[C@H](N)CNS(=O)(=O)c1ccc(-c2cnccc2N)c(-c2nn[nH]n2)c1S(N)(=O)=O	Pseudomonas aeruginosa MB9798 vs MB9799	2.00
NS(=O)(=O)c1c(S(=O)(=O)N2CCNCC2)ccc(-c2cccc3cn[nH]c23)c1-c1nnn[nH]1	Pseudomonas aeruginosa MB9798 vs MB9799	4.00
Nc1ncccc1-c1ccc(S(=O)(=O)N[C@@H]2CCNC2)c(S(N)(=O)=O)c1-c1nn[nH]n1	Pseudomonas aeruginosa MB9798 vs MB9799	1.33
Nc1nc2c(-c3ccc(S(=O)(=O)NC4CNC4)c(S(N)(=O)=O)c3-c3nn[nH]n3)cccc2s1	Pseudomonas aeruginosa MB9798 vs MB9799	0.50
Nc1nc2c(-c3ccc(S(=O)(=O)NC[C@@H]4CCNC4)c(S(N)(=O)=O)c3-c3nnn[nH]3)cccc2s1	Pseudomonas aeruginosa MB9798 vs MB9799	1.00
Nc1ncccc1-c1ccc(S(=O)(=O)NC[C@@H](N)CO)c(S(N)(=O)=O)c1-c1nn[nH]n1	Pseudomonas aeruginosa MB9798 vs MB9799	8.00
NCCNS(=O)(=O)c1ccc(-c2cccc(C(=O)NC[C@@H](N)CO)c2N)c(-c2nn[nH]n2)c1S(N)(=O)=O	Pseudomonas aeruginosa MB9798 vs MB9799	1.00
CN(C)C1CCN(S(=O)(=O)c2ccc(-c3cccc4sc(N)nc34)c(-c3nnn[nH]3)c2S(N)(=O)=O)CC1	Pseudomonas aeruginosa MB9798 vs MB9799	2.00
Nc1nc2c(-c3ccc(S(=O)(=O)NC[C@]4(N)CCNC4)c(S(N)(=O)=O)c3-c3nn[nH]n3)cccc2[nH]1	Pseudomonas aeruginosa MB9798 vs MB9799	1.00
COCCNCCNS(=O)(=O)c1ccc(-c2cccc3sc(N)nc23)c(-c2nnn[nH]2)c1S(N)(=O)=O	Pseudomonas aeruginosa MB9798 vs MB9799	1.00
Nc1nc2c(-c3ccc(S(=O)(=O)N[C@H]4CNC[C@@H]4O)c(S(N)(=O)=O)c3-c3nnn[nH]3)cccc2[nH]1	Pseudomonas aeruginosa MB9798 vs MB9799	1.00
NCC(CN)NS(=O)(=O)c1ccc(-c2cccn3ccnc23)c(-c2nn[nH]n2)c1S(N)(=O)=O	Pseudomonas aeruginosa MB9798 vs MB9799	1.00
Nc1nc2c(-c3ccc(S(=O)(=O)N4CCC(N)(CO)C4)c(S(N)(=O)=O)c3-c3nnn[nH]3)cccc2s1 (stereo not shown)	Pseudomonas aeruginosa MB9798 vs MB9799	1.00
NS(=O)(=O)c1ccc(-c2cccc3cn[nH]c23)c(-c2nn[nH]n2)c1S(N)(=O)=O	Pseudomonas aeruginosa MB9798 vs MB9799	2.00
C[C@H](CN)NS(=O)(=O)c1ccc(-c2cccc(N)n2)c(-c2nn[nH]n2)c1S(N)(=O)=O	Pseudomonas aeruginosa MB9798 vs MB9799	1.00
Nc1nc2c(-c3ccc(S(=O)(=O)N4CC[C@@H](N)C4)c(S(N)(=O)=O)c3-c3nnn[nH]3)cccc2s1	Pseudomonas aeruginosa MB9798 vs MB9799	1.00
NCC(=O)NC1CCC[C@@H](c2ccc(S(=O)(=O)N[C@@H]3CCNC3)c(S(N)(=O)=O)c2-c2nn[nH]n2)C1 (stereo partly shown)	Pseudomonas aeruginosa MB9798 vs MB9799	1.00
NCc1nc2c(-c3ccc(S(=O)(=O)N[C@@H](CN)CO)c(S(N)(=O)=O)c3-c3nn[nH]n3)cccc2[nH]1	Pseudomonas aeruginosa MB9798 vs MB9799	2.00
NC[C@H](O)CNS(=O)(=O)c1ccc(-c2ccncc2N)c(-c2nn[nH]n2)c1S(N)(=O)=O	Pseudomonas aeruginosa MB9798 vs MB9799	1.00
Nc1nc(-c2cccc(-c3ccc(S(=O)(=O)N[C@H]4CCNC4)c(S(N)(=O)=O)c3-c3nn[nH]n3)c2)c[nH]1	Pseudomonas aeruginosa MB9798 vs MB9799	2.00
C[C@H](CN)NS(=O)(=O)c1ccc(-c2cccn3ccnc23)c(-c2nn[nH]n2)c1S(N)(=O)=O	Pseudomonas aeruginosa MB9798 vs MB9799	0.50
NC[C@@H](O)CNS(=O)(=O)c1ccc(-c2ccc(N)nc2)c(-c2nn[nH]n2)c1S(N)(=O)=O	Pseudomonas aeruginosa MB9798 vs MB9799	1.00
CN1CC(NS(=O)(=O)c2ccc(-c3cccc4[nH]c(N)nc34)c(-c3nn[nH]n3)c2S(N)(=O)=O)C1	Pseudomonas aeruginosa MB9798 vs MB9799	1.00
CN1CCC(CNS(=O)(=O)c2ccc(-c3cccc4sc(N)nc34)c(-c3nnn[nH]3)c2S(N)(=O)=O)C1.O=C(O)C(F)(F)F (stereo not shown)	Pseudomonas aeruginosa MB9798 vs MB9799	0.50
NC[C@@H](N)CNS(=O)(=O)c1ccc(-c2cnc(N)s2)c(-c2nn[nH]n2)c1S(N)(=O)=O	Pseudomonas aeruginosa MB9798 vs MB9799	2.00
Nc1nc2c(-c3ccc(S(=O)(=O)NC4CN5CCC4CC5)c(S(N)(=O)=O)c3-c3nnn[nH]3)cccc2s1.O=C(O)C(F)(F)F (stereo not shown)	Pseudomonas aeruginosa MB9798 vs MB9799	1.00

* * *

assayed.system: IMP-1 (Serratia marcescens, UniProt P52699)
Sequence (P52699 whole entry, looked up, species assumed): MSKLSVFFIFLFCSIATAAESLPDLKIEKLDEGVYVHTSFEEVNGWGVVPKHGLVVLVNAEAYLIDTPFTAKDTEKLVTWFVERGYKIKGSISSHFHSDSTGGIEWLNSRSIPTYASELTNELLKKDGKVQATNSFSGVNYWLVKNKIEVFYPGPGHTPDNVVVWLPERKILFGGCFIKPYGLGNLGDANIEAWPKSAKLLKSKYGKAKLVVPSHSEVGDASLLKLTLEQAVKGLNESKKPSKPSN
experiment.description: biochemical
Type: biochemical
setup.conditions: fluorescence assay, CCF2-FA substrate, 2 pM enzyme, 2 hours at 25° C.; read-out: IMP-1 IC50

compound.structure.string	IC50
NC[C@@H](O)CNS(=O)(=O)c1ccc(-c2ccnc(N)c2)c(-c2nn[nH]n2)c1S(N)(=O)=O	1.51 nM
Nc1nc2c(-c3ccc(S(=O)(=O)NC[C@]4(N)CCNC4)c(S(N)(=O)=O)c3-c3nn[nH]n3)cccc2[nH]1	0.513 nM
Nc1nc2c(-c3ccc(S(=O)(=O)N[C@@H]4CCNC4)c(S(N)(=O)=O)c3-c3nnn[nH]3)cccc2s1	0.307 nM
Nc1nc2c(-c3ccc(S(=O)(=O)NCCC4CNC4)c(S(N)(=O)=O)c3-c3nnn[nH]3)cccc2s1	0.369 nM

* * *

Measured pIC50 values are reported for all entries that follow.
assayed.system: NDM-1 (Klebsiella pneumoniae)
Sequence (C7C422 whole entry, looked up, species assumed): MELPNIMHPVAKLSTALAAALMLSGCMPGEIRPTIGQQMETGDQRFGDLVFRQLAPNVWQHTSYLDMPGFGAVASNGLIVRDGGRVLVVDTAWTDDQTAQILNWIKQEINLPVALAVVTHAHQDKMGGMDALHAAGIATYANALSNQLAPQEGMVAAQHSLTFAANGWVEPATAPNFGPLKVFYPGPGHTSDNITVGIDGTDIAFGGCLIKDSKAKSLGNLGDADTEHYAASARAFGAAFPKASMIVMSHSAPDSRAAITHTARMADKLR
experiment.description: biochemical
Type: biochemical
setup.conditions: fluorescence assay, CCF2-FA substrate, 1 pM enzyme, 2 hours at 25° C.; read-out: NDM-1 IC50
pIC50: −log10 of the molar value.

molecule	assayed.system	pIC50
N[C@H](CO)CNS(=O)(=O)c1ccc(-c2cccc3[nH]cnc23)c(-c2nn[nH]n2)c1S(N)(=O)=O	NDM-1 (Klebsiella pneumoniae)	10.39
NS(=O)(=O)c1c(S(=O)(=O)N[C@@H]2CCNC2)ccc(-c2cccc(-c3nc[nH]n3)c2)c1-c1nn[nH]n1	NDM-1 (Klebsiella pneumoniae)	10.59
NCc1nc2c(-c3ccc(S(=O)(=O)NC[C@H](O)CN)c(S(N)(=O)=O)c3-c3nn[nH]n3)cccc2s1	NDM-1 (Klebsiella pneumoniae)	10.15
NC[C@@H](CO)NS(=O)(=O)c1ccc(-c2cccc(N)n2)c(-c2nn[nH]n2)c1S(N)(=O)=O	NDM-1 (Klebsiella pneumoniae)	9.66
CN1CC2(CCN(S(=O)(=O)c3ccc(-c4cccc5sc(N)nc45)c(-c4nnn[nH]4)c3S(N)(=O)=O)C2)C1	NDM-1 (Klebsiella pneumoniae)	9.37
Nc1nc2c(-c3ccc(S(=O)(=O)NC4C5CNCC54)c(S(N)(=O)=O)c3-c3nnn[nH]3)cccc2s1.O=C(O)C(F)(F)F (stereo not shown) [Example 111, 2,2,2-trifluoroacetate]	NDM-1 (Klebsiella pneumoniae)	10.13
CNc1nc2c(-c3ccc(S(=O)(=O)N[C@@H]4CCNC4)c(S(N)(=O)=O)c3-c3nn[nH]n3)cccc2[nH]1	NDM-1 (Klebsiella pneumoniae)	10.39

* * *

System: Pseudomonas aeruginosa MB9798 vs MB9799
setup.conditions: ratio MITC95 PA_9798/MITC95 PA_9799
A collection of molecules and their measured Efflux ratio

compound.structure.string	assayed.system	Efflux ratio
C[C@H](N)CC(=O)NS(=O)(=O)c1ccc(-c2cccc3[nH]c(N)nc23)c(-c2nn[nH]n2)c1S(N)(=O)=O	Pseudomonas aeruginosa MB9798 vs MB9799	1.00
CNCCNS(=O)(=O)c1ccc(-c2cccc3sc(N)nc23)c(-c2nnn[nH]2)c1S(N)(=O)=O	Pseudomonas aeruginosa MB9798 vs MB9799	1.50
Nc1nc2c(-c3ccc(S(=O)(=O)N[C@@H]4CCNC4)c(S(N)(=O)=O)c3-c3nn[nH]n3)cccc2[nH]1	Pseudomonas aeruginosa MB9798 vs MB9799	0.78
Nc1ncccc1-c1ccc(S(=O)(=O)N[C@H]2C[C@@H]2N)c(S(N)(=O)=O)c1-c1nn[nH]n1	Pseudomonas aeruginosa MB9798 vs MB9799	4.00
